target: hCB2R (Homo sapiens, UniProt P34972); construct: expressed in transfected cells; host or cells: CHO; experiment: [35S]GTPγS binding, CB2R agonist activity, hCB2R-CHO cell membranes; format: biochemical; details: 10 µM
Sequence (P34972 whole entry): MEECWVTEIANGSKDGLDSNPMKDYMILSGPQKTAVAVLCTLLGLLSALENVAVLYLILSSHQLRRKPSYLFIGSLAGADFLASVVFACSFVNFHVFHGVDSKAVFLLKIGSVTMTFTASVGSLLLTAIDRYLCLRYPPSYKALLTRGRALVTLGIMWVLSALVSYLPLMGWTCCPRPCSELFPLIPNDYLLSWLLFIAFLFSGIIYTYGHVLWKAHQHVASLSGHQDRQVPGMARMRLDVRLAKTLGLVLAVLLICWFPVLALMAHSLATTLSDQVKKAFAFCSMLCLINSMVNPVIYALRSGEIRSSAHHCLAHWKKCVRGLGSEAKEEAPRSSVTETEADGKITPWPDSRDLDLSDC
MEASURED PROPERTY: CB2R agonist activity [35S]GTPγS binding % Basal (Mean (range), n=2)

# count of solved cases: 3
>  <COMPOUND>
C=C(C)[C@@H]1CC[C@]2(C(=O)O)CC[C@]3(C)[C@H](CC[C@@H]4[C@@]5(C)CC[C@H](O)C(C)(C)[C@@H]5CC[C@]43C)[C@@H]12 [Compound 1, Betulinic acid, reference compound]

>  <REPORTED VALUE>
132 (106-158) % Basal

$$$$
>  <COMPOUND>
C=C(C)C1CCC2(C(=O)O)CCC3(C)C(CCC4C5(C)Cc6c([nH]c7ccccc67)C(C)(C)C5CCC43C)C12 (stereo not shown)

>  <REPORTED VALUE>
102 (90-114) % Basal

$$$$
>  <COMPOUND>
CC1(C)CC[C@]2(C(=O)O)CC[C@]3(C)C(=CC[C@@H]4[C@@]5(C)C[C@@H](O)[C@H](O)C(C)(C)[C@@H]5CC[C@]43C)[C@@H]2C1 [Compound 8, Maslinic acid, reference compound]

>  <REPORTED VALUE>
114 (104-123) % Basal

$$$$

Turning now to a further record.
input: Which measured CB2R agonist activity [35S]GTPγS binding % Basal (Mean (range), n=2) value corresponds to `CC(C)[C@@H]1CC[C@]2(C(=O)O)CC[C@]3(C)[C@H](CC[C@@H]4[C@@]5(C)CCC(=O)C(C)(C)[C@@H]5CC[C@]43C)[C@@H]12` ?
output: 98 (95-100) % Basal

###

Molecular target: hABHD6 (Homo sapiens, UniProt Q9BV23)
Construct: expressed in transfected cells; host or cells: HEK293 (transient)
Sequence (Q9BV23 1-337): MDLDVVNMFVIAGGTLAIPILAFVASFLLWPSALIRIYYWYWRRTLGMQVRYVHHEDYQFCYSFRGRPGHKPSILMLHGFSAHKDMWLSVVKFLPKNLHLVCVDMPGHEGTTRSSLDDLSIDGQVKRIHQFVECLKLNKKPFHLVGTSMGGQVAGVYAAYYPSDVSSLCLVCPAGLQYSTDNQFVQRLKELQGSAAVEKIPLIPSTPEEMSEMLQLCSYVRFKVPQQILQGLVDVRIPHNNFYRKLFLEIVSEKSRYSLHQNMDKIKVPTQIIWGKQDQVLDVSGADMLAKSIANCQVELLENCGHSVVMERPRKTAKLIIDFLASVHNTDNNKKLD
Experiment: Fluorescent glycerol assay in hABHD6-HEK293 lysates
Type: biochemical
Details: 10 µM; NI = no inhibition at 10 µM; read-out: hABHD6 Remaining activity % control ± s.e.m (n=3)
Catalogue of molecules with associated remaining activity at 10 µM
Give a bare numeral; the unit % is implied.

# count of solved cases: 2
>  <MOLECULE>
C=C(C)C1CCC2(C(=O)O)CCC3(C)C(CCC4C5(C)Cc6c([nH]c7ccccc67)C(C)(C)C5CCC43C)C12 (centres unmarked) [Compound 33]

>  <ASSAYED SYSTEM>
hABHD6 (Homo sapiens, UniProt Q9BV23)

>  <remaining activity at 10 µM [%]>
81

$$$$
>  <MOLECULE>
C=C(C)[C@@H]1CC[C@]2(C=NO)CC[C@]3(C)[C@H](CC[C@@H]4[C@@]5(C)CC[C@H](O)C(C)(C)[C@@H]5CC[C@]43C)[C@@H]12 [Compound 24]

>  <ASSAYED SYSTEM>
hABHD6 (Homo sapiens, UniProt Q9BV23)

>  <remaining activity at 10 µM [%]>
92.4

$$$$

Turning now to a further record.
input: Short answer please: remaining activity at 10 µM, hABHD6 (Homo sapiens, UniProt Q9BV23), entry CC(C)[C@@H]1CC[C@]2(C(=O)O)CC[C@]3(C)[C@H](CC[C@@H]4[C@@]5(C)CCC(=O)C(C)(C)[C@@H]5CC[C@]43C)[C@@H]12 [Compound 23]
output: 83

These data points were gathered from paper PMC4045134.
